Hello, the source for this data is patent US20120130146A1, in case you need it.

experiment: Continuous infusion study pharmacokinetics (plasma); assay type: in vivo, human; conditions: human, plasma, iv, 12 mg/h, Rate 12 mg/h; 336 h; Mean; read-out: EMD 121974 Concentrations, Mean

MOLECULE	level at 336 h (ng/mL)
CC(C)[C@H]1C(=O)N[C@@H](CCCN=C(N)N)C(=O)NCC(=O)N[C@@H](CC(=O)O)C(=O)N[C@H](Cc2ccccc2)C(=O)N1C [Cilengitide, cyclo-(Arg-Gly-Asp-DPhe-NMeVal)]	2440

* * *

Assay: Continuous infusion study pharmacokinetics (plasma)
Type: in vivo, human
Conditions: human, plasma, iv, 12 mg/h, Rate 12 mg/h; 506 h; Mean; read-out: EMD 121974 Concentrations, Mean
Procedure: Patients with solid tumors received a continuous infusion of 1 mg/h, 2 mg/h, 4 mg/h, 8 mg/h or 12 mg/h. with a weekly change of infusion bag. Blood samples were taken on Day 1 (first dose) at pre-dose and 2 h after start of infusion and then weekly just before change of infusion bag and 2 hours thereafter for the first 4 weeks. The following pharmacokinetic parameters were derived at Merck KGaA. […] From Css and t1/2 the PK parameters CL, ke and V were calculated as follows: […]
METRIC_NAME: level at 506 h (ng/mL)

MOLECULE	METRIC_NAME	MEASURED_NUMBER
CC(C)[C@H]1C(=O)N[C@@H](CCCN=C(N)N)C(=O)NCC(=O)N[C@@H](CC(=O)O)C(=O)N[C@H](Cc2ccccc2)C(=O)N1C [Cilengitide, cyclo-(Arg-Gly-Asp-DPhe-NMeVal)]	level at 506 h	1550

* * *

experiment: Continuous infusion study pharmacokinetics (plasma); format: in vivo, human; details: human, plasma, iv, 4 mg/h, Rate 4 mg/h; 504 h; Mean; read-out: EMD 121974 Concentrations, Mean
METRIC_NAME: level at 504 h

COMPOUND	RESULT
CC(C)[C@H]1C(=O)N[C@@H](CCCN=C(N)N)C(=O)NCC(=O)N[C@@H](CC(=O)O)C(=O)N[C@H](Cc2ccccc2)C(=O)N1C [Cilengitide, cyclo-(Arg-Gly-Asp-DPhe-NMeVal)]	665 ng/mL

* * *

assay: Continuous infusion study pharmacokinetics (plasma); type: in vivo, human; details: human, plasma, intravenous, 12 mg/h, Rate 12 mg/h; Mean; read-out: CL, Mean (converted)

COMPOUND	MEASURE_UNIT	clearance
CC(C)[C@H]1C(=O)N[C@@H](CCCN=C(N)N)C(=O)NCC(=O)N[C@@H](CC(=O)O)C(=O)N[C@H](Cc2ccccc2)C(=O)N1C [Cilengitide, cyclo-(Arg-Gly-Asp-DPhe-NMeVal)]	mL/min	114

* * *

assay: Continuous infusion study pharmacokinetics (plasma); format: in vivo, human; conditions: human, plasma, intravenous, 8 mg/h, Rate 8 mg/h; Mean; read-out: CL, Mean (converted)

COMPOUND	clearance
CC(C)[C@H]1C(=O)N[C@@H](CCCN=C(N)N)C(=O)NCC(=O)N[C@@H](CC(=O)O)C(=O)N[C@H](Cc2ccccc2)C(=O)N1C [Cilengitide, cyclo-(Arg-Gly-Asp-DPhe-NMeVal)]	112 mL/min

* * *

assay: Continuous infusion study pharmacokinetics (plasma); type: in vivo, human; settings: human, plasma, iv, 8 mg/h, Rate 8 mg/h; 170 h; Mean; read-out: EMD 121974 Concentrations, Mean
METRIC_NAME: level at 170 h (ng/mL)

MOLECULE	MEASURED_NUMBER
CC(C)[C@H]1C(=O)N[C@@H](CCCN=C(N)N)C(=O)NCC(=O)N[C@@H](CC(=O)O)C(=O)N[C@H](Cc2ccccc2)C(=O)N1C [Cilengitide, cyclo-(Arg-Gly-Asp-DPhe-NMeVal)]	1210

* * *

assay: Continuous infusion study pharmacokinetics (plasma); format: in vivo, human; settings: human, plasma, iv, 1 mg/h, Rate 1 mg/h; 338 h; Mean; read-out: EMD 121974 Concentrations, Mean

COMPOUND	level at 338 h
CC(C)[C@H]1C(=O)N[C@@H](CCCN=C(N)N)C(=O)NCC(=O)N[C@@H](CC(=O)O)C(=O)N[C@H](Cc2ccccc2)C(=O)N1C [Cilengitide, cyclo-(Arg-Gly-Asp-DPhe-NMeVal)]	191 ng/mL

* * *

experiment: Continuous infusion study pharmacokinetics (plasma); assay type: in vivo, human; details: human, plasma, intravenous, 4 mg/h, Rate 4 mg/h; Mean; read-out: CL, Mean (converted)
METRIC_NAME: clearance

MOLECULE	RESULT
CC(C)[C@H]1C(=O)N[C@@H](CCCN=C(N)N)C(=O)NCC(=O)N[C@@H](CC(=O)O)C(=O)N[C@H](Cc2ccccc2)C(=O)N1C [Cilengitide, cyclo-(Arg-Gly-Asp-DPhe-NMeVal)]	109 mL/min

* * *

assay: Continuous infusion study pharmacokinetics (plasma); type: in vivo, human; conditions: human, plasma, iv, 8 mg/h, Rate 8 mg/h; 506 h; Mean; read-out: EMD 121974 Concentrations, Mean

COMPOUND	level at 506 h, ng/mL
CC(C)[C@H]1C(=O)N[C@@H](CCCN=C(N)N)C(=O)NCC(=O)N[C@@H](CC(=O)O)C(=O)N[C@H](Cc2ccccc2)C(=O)N1C [Cilengitide, cyclo-(Arg-Gly-Asp-DPhe-NMeVal)]	1290

* * *

assay: Continuous infusion study pharmacokinetics (plasma); format: in vivo, human; conditions: human, plasma, iv, 1 mg/h, Rate 1 mg/h; 170 h; Mean; read-out: EMD 121974 Concentrations, Mean
METRIC_NAME: level at 170 h (ng/mL)

COMPOUND	METRIC_NAME	MEASURED_NUMBER
CC(C)[C@H]1C(=O)N[C@@H](CCCN=C(N)N)C(=O)NCC(=O)N[C@@H](CC(=O)O)C(=O)N[C@H](Cc2ccccc2)C(=O)N1C [Cilengitide, cyclo-(Arg-Gly-Asp-DPhe-NMeVal)]	level at 170 h	66.6

* * *

test: Continuous infusion study pharmacokinetics (plasma); assay type: in vivo, human; conditions: human, plasma, intravenous, 2 mg/h, Rate 2 mg/h; CL=Rate/Css; individual subjects; read-out: CL (converted)
METRIC_NAME: clearance

COMPOUND	RESULT
CC(C)[C@H]1C(=O)N[C@@H](CCCN=C(N)N)C(=O)NCC(=O)N[C@@H](CC(=O)O)C(=O)N[C@H](Cc2ccccc2)C(=O)N1C [Cilengitide, cyclo-(Arg-Gly-Asp-DPhe-NMeVal)]	115 mL/min

* * *

assay: Continuous infusion study pharmacokinetics (plasma); assay type: in vivo, human; settings: human, plasma, iv, 8 mg/h, Rate 8 mg/h; 168 h; Mean; read-out: EMD 121974 Concentrations, Mean

COMPOUND	level at 168 h / ng/mL
CC(C)[C@H]1C(=O)N[C@@H](CCCN=C(N)N)C(=O)NCC(=O)N[C@@H](CC(=O)O)C(=O)N[C@H](Cc2ccccc2)C(=O)N1C [Cilengitide, cyclo-(Arg-Gly-Asp-DPhe-NMeVal)]	1460

* * *

assay: Continuous infusion study pharmacokinetics (plasma); assay type: in vivo, human; conditions: human, plasma, iv, 1 mg/h, Rate 1 mg/h; 336 h; Mean; read-out: EMD 121974 Concentrations, Mean

MOLECULE	level at 336 h / ng/mL
CC(C)[C@H]1C(=O)N[C@@H](CCCN=C(N)N)C(=O)NCC(=O)N[C@@H](CC(=O)O)C(=O)N[C@H](Cc2ccccc2)C(=O)N1C [Cilengitide, cyclo-(Arg-Gly-Asp-DPhe-NMeVal)]	209
